B1: NET1 (parent)
chain: PTPAKRRSSALWSEMLDITMKESL

Variants of: B1
Test Name: protein stability index of a GFP-peptide fusion (GPS, HEK-293T) (PSI 1-6); higher = more stable;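 also: lentivirally expressed fusions sorted by FACS into six bins by GFP to DsRed ratio, PSI derived from sequencing read proportions per bin multiplied by bin number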
Measurement Parameters: c terminus: a fixed tail appended
# protein stability index annotations
Readout Kind: protein stability index

variant_designation=W12L readout_kind="protein stability index" numeric_readout=3.31
variant_designation=R7Q readout_kind="protein stability index" numeric_readout=2.54
variant_designation=M15I readout_kind="protein stability index" numeric_readout=2.07
variant_designation=P1A readout_kind="protein stability index" numeric_readout=2.56
variant_designation=R7E readout_kind="protein stability index" numeric_readout=2.8
variant_designation=A10S readout_kind="protein stability index" numeric_readout=2.1
variant_designation=A10T readout_kind="protein stability index" numeric_readout=2.52
variant_designation=S13Y readout_kind="protein stability index" numeric_readout=2.09
variant_designation=R7G readout_kind="protein stability index" numeric_readout=2.38
variant_designation=R6C readout_kind="protein stability index" numeric_readout=1.98
variant_designation=L11Y readout_kind="protein stability index" numeric_readout=2.39
